# measured-target: T1, Ep-CAM (UniProt P16422 24-265, limits assumed)
# T1 construct: Amine coupled to a CM5 chip in the Biacore assays
# T1 sequence (looked up): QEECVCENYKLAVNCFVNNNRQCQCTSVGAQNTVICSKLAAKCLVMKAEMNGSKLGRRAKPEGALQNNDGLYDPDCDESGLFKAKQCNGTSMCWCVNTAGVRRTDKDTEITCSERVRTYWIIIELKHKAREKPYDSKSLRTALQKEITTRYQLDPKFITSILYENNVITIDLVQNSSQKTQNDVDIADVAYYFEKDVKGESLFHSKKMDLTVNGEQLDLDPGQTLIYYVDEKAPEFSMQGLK
# experiment: Biacore, Fab periplasmic extract
measured-parameter: binding result

ING-1 light chain L97D (Fab, V domains shown, Fab, periplasmic extract) VH: QIQLVQSGPELKKPGETVKISCKASGYTFTKYGMNWVKQAPGKGLKWMGWINTYTEEPTYGDDFKGRFAFSLETSASTANLQINNLKSEDTATYFCARFGSAVDYWGQGTSVTVSS VL: DIVMTQAAFSNPVTLGTSGSISCRSSKSLLHSNGITYLYWYLQKPGQSPQLLIYQMSNLASGVPDRFSSSGSGTDFTLRISRVEAEDVGVYYCAQNDELPRTFGGGTKLEMKR: no binding
ING-1 light chain L30K (Fab, V domains shown, Fab, periplasmic extract) VH: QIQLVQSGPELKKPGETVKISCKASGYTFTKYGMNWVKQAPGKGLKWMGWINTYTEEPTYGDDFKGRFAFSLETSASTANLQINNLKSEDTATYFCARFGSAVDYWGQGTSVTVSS VL: DIVMTQAAFSNPVTLGTSGSISCRSSKSLKHSNGITYLYWYLQKPGQSPQLLIYQMSNLASGVPDRFSSSGSGTDFTLRISRVEAEDVGVYYCAQNLELPRTFGGGTKLEMKR: no binding
